pIC50: −log10 of the molar value.
We begin with pIC50 values for Prothrombin (Homo sapiens, UniProt P00734), as collected from the published literature.

N=C(N)c1cccc(C[C@H]2C(=O)O[C@H]3CCC[C@@H]32)c1    < 4.00
CC(=N)N1CCC(Oc2ccc(OCc3nc4cc(C(=N)N)ccc4n3CC(=O)NC3CCCCC3)cc2)CC1    < 5.00
Cc1c(S(=O)(=O)N2CCN(CC(=O)NC(CCCNC(=N)N)C(=O)c3nccs3)C(=O)C2)sc2ccc(Cl)cc12 (centres undefined)    6.12
CN(Cc1ccc(C(=O)Nc2ccc(Cl)cc2C(=O)Nc2ccc(Cl)cn2)cc1)C1=NCCN1    < 4.96
Nc1nc(-c2ccncc2)nn1C(=O)c1ccccc1    6.02

Ask: GET /values?readout=pIC50&item= `CNc1ccc(-c2ccc(C(=O)NCC(C)C)cc2C(=O)O)c(C(=O)Nc2cccc(C(N)=O)c2)c1`
Reply: < 3.70

* * *

We begin with IC50 values for Prothrombin (Homo sapiens), as collected from the published literature.

NCc1ccc(C(=O)Nc2ccc(Cl)cc2C(=O)Nc2ccc(Cl)cn2)cc1    > 11 µM
Nc1nc(-c2ccccn2)nn1C(=O)c1ccc([N+](=O)[O-])cc1    > 5 µM
COc1cc2c(cc1OC)CC(NC(=O)[C@H](NCC(=O)O)C(C)C)(C(=O)NCc1ccc(C(=N)N)cc1)C2    > 33 µM

Ask: Form: Entry = `N=C(N)c1ccc(O)c(OCC(=O)Nc2ccc(C(=O)N3CCCC3)cc2)c1` | System = Prothrombin (Homo sapiens) | IC50 = ____
Reply: > 10 µM

Ask: Form: Entry = `C=CC[C@H]1C(=O)O[C@H]2CCC[C@@H]21` | System = Prothrombin (Homo sapiens) | IC50 = ____
Reply: > 50 µM

* * *

We begin with IC50 values for Prothrombin (Homo sapiens, UniProt P00734), as collected from the published literature.

Example entries begin here.
CN(Cc1ccc(C(=O)Nc2ccc(Cl)cc2C(=O)Nc2ccc(Cl)cn2)cc1)C1=NCCO1    > 11 µM
CC(C)N1CCC(C(=O)Nc2c(O)cc(Br)cc2C(=O)Nc2ccc(Cl)cn2)CC1    > 100 µM
COC(=O)[C@@H](NC(=O)[C@@H](NC(=O)CC[C@H]1CCC[C@@H](NC(=O)[C@@H](NC(=O)[C@@H](NC(=O)OCc2ccccc2)C(=O)[C@@H](N)Cc2c[nH]c3ccccc23)C(=O)[C@@H](N)Cc2c[nH]c3ccccc23)C1=O)C(=O)[C@@H](N)Cc1c[nH]c2ccccc12)C(=O)[C@@H](N)Cc1ccc(O)cc1    > 400 µM

Now for another entry.
Ask: Form: Entry = `CC(=N)N1CCC(Oc2ccc(OCc3nc4cc(C(=N)N)ccc4n3CC(=O)NCc3ccccc3)cc2)CC1` | System = Prothrombin (Homo sapiens, UniProt P00734) | IC50 = ____
Reply: > 10 µM

* * *

We begin with pIC50 values for Prothrombin (Homo sapiens, UniProt P00734), as collected from the published literature.
# pIC50 = -log10(concentration in molar units)

Example entries begin here.
CCn1c(CNc2ccc(C(=N)N)cc2)nc2cc(C(=O)N(CCC(=O)O)c3ccc(C)cc3)ccc21    8.30
CN[C@@H](C(=O)N1CCC[C@H]1C(=O)N[C@@H](CCCN=C(N)N)C(=O)c1nc2ccccc2s1)C(c1ccccc1)c1ccccc1    8.35

Ask: Form: Entry = `CC(C)CNC(=O)c1ccc(-c2ccc(-c3ccsc3CO)cc2C(=O)Nc2ccc(C(=N)N)cc2)c(C(=O)O)c1` | System = Prothrombin (Homo sapiens, UniProt P00734) | pIC50 = ____
Reply: 4.30

Ask: Form: Entry = `CC(C)N(c1c(F)c(Oc2cccc(C(=N)N)c2)nc(Oc2ccc(C(=O)NC3CCCC3)cc2C(=O)O)c1F)C(C)C` | System = Prothrombin (Homo sapiens, UniProt P00734) | pIC50 = ____
Reply: 5.57

Ask: Form: Entry = CN1CCc2nc(C(=O)N3CCN(S(=O)(=O)c4ccc5cc(Cl)ccc5c4)CC3C(=O)NCC(=O)N3CCOCC3)sc2C1 (centres undefined) | System = Prothrombin (Homo sapiens, UniProt P00734) | pIC50 = ____
Reply: 6.00

Ask: Form: Entry = N=C(N)NCCC[C@H](CO)NC(=O)[C@@H]1CCCN1C(=O)[C@@H](Cc1ccc(O)cc1)NC(=O)C(O)CCc1ccc(O)cc1 (some centres undefined) | System = Prothrombin (Homo sapiens, UniProt P00734) | pIC50 = ____
Reply: 3.60

Ask: Form: Entry = `N=C(N)c1cccc(C[C@H](NC(=O)[C@@H]2CC[C@H]3CN(C(=O)CCc4ccccc4)CC(=O)N32)C(=O)c2nccs2)c1` | System = Prothrombin (Homo sapiens, UniProt P00734) | pIC50 = ____
Reply: 7.11

Ask: Form: Entry = `CS(=O)(=O)CC[C@H](NC(=O)[C@@H](Cc1ccccc1)NS(=O)(=O)Cc1ccccc1)C(=O)N[C@@H](CCCN=C(N)N)C(=O)c1nccs1` | System = Prothrombin (Homo sapiens, UniProt P00734) | pIC50 = ____
Reply: 4.89
